Origin of values: patent US10889553B2

pIC50 values, listed per item
# System: A549 (lung)
# Assay overview: Cancer cell proliferation assay (acid phosphatase)
# Format: cell-based
# Condition notes: Homo sapiens, A549, 72 h, Table 6A; 72 hrs; read-out: A549 IC50
pIC50: −log10 of the molar value.
Readout type: pIC50

>  <Compound>
O=C(Nc1nc(NC(=O)c2ccncc2)n(-c2ccccc2)n1)c1ccncc1

>  <Study target>
A549 (lung)

>  <Result comparator>
<

>  <Reported measurement>
5.60

$$$$
>  <Compound>
O=C(Nc1nc(NC(=O)c2cccnc2)n(-c2ccc(C(F)(F)F)cc2)n1)c1cccnc1

>  <Study target>
A549 (lung)

>  <Result comparator>
=

>  <Reported measurement>
5.70

$$$$
>  <Compound>
Cc1ccccc1C(=O)Nc1nc(NC(=O)c2ccccc2C)n(-c2ccc(N3CCC(O)C3)cc2)n1 (stereo not drawn)

>  <Study target>
A549 (lung)

>  <Result comparator>
=

>  <Reported measurement>
5.59

$$$$

---

# Study target: UniProtKB O60260
# Assay overview: Activity-Based Probe Assay using Ubiquitin vinyl sulfone probe (TR-FRET)
# Type: biochemical
# Condition notes: heat activated Parkin, HA-Ub-VS probe, activation EC50; read-out: Probe Assay EC50 (μM) [Example 2]

>  <Compound>
Cc1ccccc1C(=O)Nc1nc(NC(=O)c2ccncc2)nn1-c1ccc(Cl)cc1 [Compound 92]

>  <Study target>
UniProtKB O60260

>  <Result comparator>
=

>  <EC50 [µM]>
2

$$$$
>  <Compound>
Cc1cccc(-c2nc(NC(=O)c3ccccc3C)n(-c3ccc(OC(F)(F)F)cc3)n2)n1 [Compound 126]

>  <Study target>
UniProtKB O60260

>  <Result comparator>
=

>  <EC50 [µM]>
2

$$$$
>  <Compound>
C#Cc1cccc(C(=O)Nc2nc(NC(=O)c3cccc(N=[N+]=[N-])c3)nn2-c2ccccc2)c1 [Compound 29]

>  <Study target>
UniProtKB O60260

>  <Result comparator>
=

>  <EC50 [µM]>
2

$$$$
>  <Compound>
Cc1ccccc1C(=O)Nc1nc(N[C@@H](C)c2ccccc2)nn1-c1ccc(OC(F)(F)F)cc1 [Compound 117]

>  <Study target>
UniProtKB O60260

>  <Result comparator>
=

>  <EC50 [µM]>
2

$$$$
>  <Compound>
Cc1ccccc1C(=O)Nc1nc(-c2ncccc2F)nn1-c1ccccc1 [Compound 136]

>  <Study target>
UniProtKB O60260

>  <Result comparator>
>

>  <EC50 [µM]>
100

$$$$
>  <Compound>
Cc1ccccc1C(=O)Nc1nc(NC(=O)c2ccc(N=[N+]=[N-])cc2)n(-c2ccccc2)n1 [Compound 70]

>  <Study target>
UniProtKB O60260

>  <Result comparator>
=

>  <EC50 [µM]>
4

$$$$
>  <Compound>
Cc1ccccc1C(=O)Nc1nc(NC(=O)c2ccno2)n(-c2ccc(OC(F)(F)F)cc2)n1 [Compound 71]

>  <Study target>
UniProtKB O60260

>  <Result comparator>
=

>  <EC50 [µM]>
3

$$$$

---

# Study target: Parkin ligase (Homo sapiens, UniProt O60260)
# Sequence (O60260 whole entry): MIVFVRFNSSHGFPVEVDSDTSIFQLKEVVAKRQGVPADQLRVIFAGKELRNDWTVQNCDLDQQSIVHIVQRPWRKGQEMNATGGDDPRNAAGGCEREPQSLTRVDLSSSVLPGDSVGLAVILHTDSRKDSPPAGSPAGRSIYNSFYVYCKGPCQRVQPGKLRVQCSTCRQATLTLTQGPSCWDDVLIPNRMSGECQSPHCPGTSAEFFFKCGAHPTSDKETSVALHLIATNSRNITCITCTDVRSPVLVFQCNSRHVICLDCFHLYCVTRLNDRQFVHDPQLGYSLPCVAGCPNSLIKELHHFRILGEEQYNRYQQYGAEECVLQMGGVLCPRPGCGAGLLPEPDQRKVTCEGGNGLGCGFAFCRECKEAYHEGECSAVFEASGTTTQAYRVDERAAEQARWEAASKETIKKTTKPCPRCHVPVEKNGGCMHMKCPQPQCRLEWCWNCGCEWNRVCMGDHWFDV
# Assay overview: Activity-Based Probe Assay using Ubiquitin vinyl sulfone probe (TR-FRET)
# Format: biochemical
# Condition notes: heat activated Parkin, HA-Ub-VS probe, activation EC50; read-out: Probe Assay EC50 (μM) [Example 2]

>  <Compound>
Cc1ccccc1C(=O)Nc1nc(NC(=O)C2CCCNC2)nn1-c1ccccc1 (stereo not shown)

>  <EC50>
> 100 µM

$$$$
>  <Compound>
Cn1cnc(-c2nc(N)n(-c3ccccc3)n2)c1

>  <EC50>
> 100 µM

$$$$
>  <Compound>
Cc1ccccc1C(=O)Nc1nc(-c2cn(C)cn2)nn1-c1ccccc1

>  <EC50>
> 100 µM

$$$$
>  <Compound>
Cc1ccccc1C(=O)Nc1nc(NC(=O)c2cn(C)cn2)n(-c2ccccc2)n1

>  <EC50>
> 100 µM

$$$$
